# target_entity: rhBACE-1 β-Secretase recombinant human (Homo sapiens)
# Construct: purchased R&D Systems 931-AS
# assay_details: BACE assay (FRET)
# Format: biochemical
# condition_summary: 1 μM compound; percentage of enzyme activity remaining
observed_property: % of BACE activity (%)

• CC(=O)Nc1ccc(C(=O)O)cc1OC/C=C(\C)CC/C=C(\C)CCC=C(C)C [Compound 21] = 68.5
• CC(C)=CCC/C(C)=C/CC/C(C)=C/COc1cc(C(=O)O)ccc1N [Compound 17] = 100
• COC(=O)c1ccc(NC(C)=O)c(OC/C=C(\C)CCC=C(C)C)c1 [Compound 19] = 3.5
• COCOC(=O)c1ccc(OC)c(OC/C=C(\C)CCC=C(C)C)c1 [Compound 23] = 61
• COC(=O)c1ccc(NC(C)=O)c(OC/C=C(\C)CC/C=C(\C)CCC=C(C)C)c1 [Compound 20] = 2
• CC(C)=CCC/C(C)=C/CC/C(C)=C/COc1ccc(C(=O)O)cc1OC/C=C(\C)CC/C=C(\C)CCC=C(C)C [Compound 24] = 30
• COc1ccc(C(=O)OC/C=C(\C)CCC=C(C)C)cc1OC/C=C(\C)CCC=C(C)C [Compound 11] = 48
• COC(=O)c1cccc(OC/C=C(\C)CCC=C(C)C)c1 [Compound 5] = 13.3

====

# target_entity: recombinant human glycogen synthase kinase 3 beta (Homo sapiens, UniProt P49841)
# Sequence (P49841 whole entry): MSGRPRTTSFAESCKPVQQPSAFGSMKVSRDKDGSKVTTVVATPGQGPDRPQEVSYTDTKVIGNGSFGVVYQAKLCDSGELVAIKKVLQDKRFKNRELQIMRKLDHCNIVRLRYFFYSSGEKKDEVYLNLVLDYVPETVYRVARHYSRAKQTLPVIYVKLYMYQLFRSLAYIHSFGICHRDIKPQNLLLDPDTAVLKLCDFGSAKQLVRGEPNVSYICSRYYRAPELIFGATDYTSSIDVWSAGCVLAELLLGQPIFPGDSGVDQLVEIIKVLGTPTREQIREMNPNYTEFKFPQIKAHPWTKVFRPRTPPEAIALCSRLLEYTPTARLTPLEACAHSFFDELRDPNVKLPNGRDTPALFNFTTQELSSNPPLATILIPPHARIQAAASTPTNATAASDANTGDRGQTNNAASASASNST
# assay_details: GSK-3 beta inhibition assay
# Format: biochemical
# condition_summary: 0.5 h; 50 μM compound; percentage of enzyme activity remaining
observed_property: remaining activity at 50 µM (%)

* COc1ccc(C(=O)OCC=C(C)C)cc1OC/C=C(\C)CCC=C(C)C | 7.36
* COC(=O)c1ccc(NC(C)=O)c(OC/C=C(\C)CCC=C(C)C)c1 | 85.1
* CC(C)=CCC/C(C)=C/COc1cccc(C(=O)O)c1 | 80
* COC(=O)c1ccc(N)c(OC/C=C(\C)CCC=C(C)C)c1 | 71
* CC(C)=CCC/C(C)=C/COc1cc(C(=O)O)ccc1O | 95.7
* COC(=O)c1cccc(OC/C=C(\C)CCC=C(C)C)c1 | 80.7
* COC(=O)c1ccc(OC)c(OC/C=C(\C)CCC=C(C)C)c1 | 68
* COC(=O)c1ccc(NC(C)=O)c(OC/C=C(\C)CC/C=C(\C)CCC=C(C)C)c1 | 40
* CCOC(=O)c1ccc(O)c(OC/C=C(\C)CCC=C(C)C)c1 | 7.61

====

The following molecules are shown together with reported % of BACE activity values.
# target_entity: rhBACE-1 β-Secretase recombinant human (Homo sapiens, UniProt P56817)
# Construct: purchased R&D Systems 931-AS
# Sequence (P56817 46-457 limits assumed): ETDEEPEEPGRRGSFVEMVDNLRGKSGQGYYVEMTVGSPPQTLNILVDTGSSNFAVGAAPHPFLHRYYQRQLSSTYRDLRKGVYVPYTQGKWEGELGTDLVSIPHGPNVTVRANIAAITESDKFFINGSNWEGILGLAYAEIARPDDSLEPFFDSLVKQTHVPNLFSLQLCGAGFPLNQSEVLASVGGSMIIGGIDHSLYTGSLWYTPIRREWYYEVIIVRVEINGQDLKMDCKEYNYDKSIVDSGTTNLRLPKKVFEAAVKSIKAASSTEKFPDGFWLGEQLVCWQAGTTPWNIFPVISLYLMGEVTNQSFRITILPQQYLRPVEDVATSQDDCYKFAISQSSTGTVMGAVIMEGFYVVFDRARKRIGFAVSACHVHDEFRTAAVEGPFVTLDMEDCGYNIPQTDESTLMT
# assay_details: BACE assay (FRET)
# Assay type: biochemical
# condition_summary: 1 μM compound; percentage of enzyme activity remaining
observed_property: % of BACE activity (%)

- COC(=O)c1ccc(OC)c(OC/C=C(\C)CCC=C(C)C)c1 [Compound 2]: 100
- COC(=O)c1ccc(N)c(OC/C=C(\C)CCC=C(C)C)c1 [Compound 8]: 100
- COc1ccc(C(=O)NC/C=C(\C)CCC=C(C)C)cc1OC/C=C(\C)CCC=C(C)C [Compound 12]: 99
- CC(C)=CCC/C(C)=C/COc1cccc(C(=O)O)c1 [Compound 6]: 87.5
- CC(C)=CCC/C(C)=C/COc1cc(C(=O)O)ccc1O [Compound 28]: 100

Just for reference, patent US20100267827A1 is where these values come from.
